- Target or test system: C2GnT3 (Homo sapiens)
- Construct: An expression vector construct designed to encode amino acid residues 39-453 of C2GnT3; gp67 secretion signal of vector pAcGP67A (N); made in house; host or cells: Sf9 insect cells (baculovirus; culture supernatant); High Five cells for kinetic properties (partially purified)
- Sequence (Q9P109 39-453): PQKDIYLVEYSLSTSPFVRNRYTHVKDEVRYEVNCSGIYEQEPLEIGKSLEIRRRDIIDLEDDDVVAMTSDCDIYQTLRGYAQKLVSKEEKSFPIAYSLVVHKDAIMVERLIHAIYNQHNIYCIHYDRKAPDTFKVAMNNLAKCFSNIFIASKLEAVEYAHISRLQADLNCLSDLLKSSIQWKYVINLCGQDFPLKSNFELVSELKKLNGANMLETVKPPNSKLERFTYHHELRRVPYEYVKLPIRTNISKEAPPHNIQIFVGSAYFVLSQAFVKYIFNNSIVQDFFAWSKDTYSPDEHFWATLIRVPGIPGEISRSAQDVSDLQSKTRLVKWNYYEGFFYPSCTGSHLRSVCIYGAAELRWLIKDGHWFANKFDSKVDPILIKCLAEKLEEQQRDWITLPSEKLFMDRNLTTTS
- Experimental details: GlcNAc-transferase activity of recombinant soluble C2GnT3 with acceptor/donor substrates
- Type: biochemical
- Assay context: acceptor substrate 2 mM; partially purified media of infected High Five cells; background subtracted
Form field: Substrate specificity, C2GnT3 activity (one value per entry).

Compound	Unit annotation	Limit qualifier	Substrate specificity, C2GnT3 activity
CC(=O)N[C@H]1[C@@H](Oc2ccc([N+](=O)[O-])cc2)O[C@H](CO)[C@H](O)[C@@H]1O[C@@H]1O[C@H](CO)[C@H](O)[C@H](O)[C@H]1O [β-D-Gal-(1-3)-α-D-GalNAc-1-p-Nph]	nmol/h/mg	=	18.1
CC(=O)N[C@H]1[C@@H](Oc2ccc([N+](=O)[O-])cc2)O[C@H](CO)[C@H](O)[C@@H]1O [α-D-GalNAc-1-p-Nph]	nmol/h/mg	<	0.1
CC(=O)N[C@@H]1[C@@H](O[C@@H]2O[C@H](CO)[C@H](O)[C@H](O)[C@H]2O)[C@@H](O)[C@@H](CO)O[C@@H]1O [β-D-Gal-(1-3)-α-D-GalNAc]	nmol/h/mg	=	6.6
CO[C@@H]1O[C@H](CO)[C@H](O)[C@H](O[C@@H]2O[C@H](CO)[C@@H](O)[C@H](O)[C@H]2NC(C)=O)[C@H]1O [β-D-GlcNAc-(1-3)-β-D-Gal-1-Me]	nmol/h/mg	<	0.1
CC(=O)N[C@H]1C(O)O[C@H](CO)[C@H](O)[C@@H]1O (stereo partly drawn) [D-GalNAc]	nmol/h/mg	<	0.1

* * *

- Target or test system: UniProt:Q02742
- Sequence (Q02742 whole entry): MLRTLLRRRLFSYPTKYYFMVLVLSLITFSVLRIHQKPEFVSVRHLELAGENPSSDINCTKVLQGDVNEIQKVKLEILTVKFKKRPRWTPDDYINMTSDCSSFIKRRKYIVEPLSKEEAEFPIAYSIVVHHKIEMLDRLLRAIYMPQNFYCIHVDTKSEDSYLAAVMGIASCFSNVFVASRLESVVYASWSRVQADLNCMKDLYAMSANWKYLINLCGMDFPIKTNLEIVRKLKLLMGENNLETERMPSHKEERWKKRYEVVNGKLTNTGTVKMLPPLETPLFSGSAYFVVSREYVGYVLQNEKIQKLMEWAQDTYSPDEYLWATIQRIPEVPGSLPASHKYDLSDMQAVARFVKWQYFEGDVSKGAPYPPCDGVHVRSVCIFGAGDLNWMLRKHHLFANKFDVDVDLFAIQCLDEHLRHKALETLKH
- Experimental details: GlcNAc-transferase activity of C2GnT1 with acceptor substrates
- Format: biochemical
- Assay context: acceptor substrate 2 mM

Compound	Substrate specificity, C2GnT1 activity
CC(=O)N[C@H]1[C@@H](Oc2ccc([N+](=O)[O-])cc2)O[C@H](CO)[C@H](O)[C@@H]1O[C@@H]1O[C@H](CO)[C@H](O)[C@H](O)[C@H]1O	16.2 nmol/h/mg
CC(=O)N[C@H]1[C@H](O[C@H]2[C@@H](O)[C@@H](CO)O[C@@H](O[C@H]3[C@H](O)[C@@H](O)C(O)O[C@@H]3CO)[C@@H]2O)O[C@H](CO)[C@@H](O[C@@H]2O[C@H](CO)[C@H](O)[C@H](O)[C@H]2O)[C@@H]1O (mixture of isomers)	<0.1 nmol/h/mg
CC(=O)N[C@H]1C(O)O[C@H](CO)[C@H](O)[C@@H]1O (stereo partly shown)	<0.1 nmol/h/mg
CC(=O)NC1C(OC2C(O)C(CO)OC(Oc3ccc([N+](=O)[O-])cc3)C2NC(C)=O)OC(CO)C(O)C1O (stereo not shown)	<0.1 nmol/h/mg
CC(=O)N[C@H]1[C@@H](Oc2ccc([N+](=O)[O-])cc2)O[C@H](CO)[C@H](O)[C@@H]1O	<0.1 nmol/h/mg
CO[C@@H]1O[C@H](CO)[C@H](O)[C@H](O[C@@H]2O[C@H](CO)[C@@H](O)[C@H](O)[C@H]2NC(C)=O)[C@H]1O	<0.1 nmol/h/mg
CC(=O)N[C@@H]1[C@@H](O[C@@H]2O[C@H](CO)[C@H](O)[C@H](O)[C@H]2O)[C@@H](O)[C@@H](CO)O[C@@H]1O	9.6 nmol/h/mg

* * *

- Target or test system: C2GnT3 (Homo sapiens)
- Construct: An expression vector construct designed to encode amino acid residues 39-453 of C2GnT3; gp67 secretion signal of vector pAcGP67A (N); made in house; host or cells: Sf9 insect cells (baculovirus; culture supernatant); High Five cells for kinetic properties (partially purified)
- Sequence (Q9P109 39-453): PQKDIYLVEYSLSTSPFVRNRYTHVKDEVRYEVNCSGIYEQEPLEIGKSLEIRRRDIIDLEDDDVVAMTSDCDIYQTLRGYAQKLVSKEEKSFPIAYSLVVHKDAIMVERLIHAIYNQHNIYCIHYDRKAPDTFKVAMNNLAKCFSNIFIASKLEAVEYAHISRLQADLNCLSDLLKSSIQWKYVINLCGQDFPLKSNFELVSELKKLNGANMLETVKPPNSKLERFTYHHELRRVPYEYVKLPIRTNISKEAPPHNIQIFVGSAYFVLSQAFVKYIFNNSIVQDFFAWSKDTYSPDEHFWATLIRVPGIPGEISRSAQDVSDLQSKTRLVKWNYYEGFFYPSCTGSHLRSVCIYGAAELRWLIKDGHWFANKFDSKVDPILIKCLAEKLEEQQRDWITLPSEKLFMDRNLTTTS
- Experimental details: GlcNAc-transferase activity of recombinant soluble C2GnT3 with acceptor/donor substrates
- Format: biochemical
- Assay context: acceptor substrate 2 mM; partially purified media of infected High Five cells; background subtracted
Listed next: entries and their corresponding Substrate specificity, C2GnT3 activity.
Quantity measured: Substrate specificity, C2GnT3 activity

Molecule	Recorded value
CC(=O)NC1C(OC2C(O)C(CO)OC(Oc3ccc([N+](=O)[O-])cc3)C2NC(C)=O)OC(CO)C(O)C1O [β-D-GlcNAc-(1-3)-α-D-GalNAc-1-p-Nph]	<0.1 nmol/h/mg
CC(=O)N[C@H]1[C@H](O[C@H]2[C@@H](O)[C@@H](CO)O[C@@H](O[C@H]3[C@H](O)[C@@H](O)C(O)O[C@@H]3CO)[C@@H]2O)O[C@H](CO)[C@@H](O[C@@H]2O[C@H](CO)[C@H](O)[C@H](O)[C@H]2O)[C@@H]1O (mixture of isomers) [lacto-N-neo-tetraose]	<0.1 nmol/h/mg

* * *

- Target or test system: C2GnT3 (Homo sapiens)
- Construct: An expression vector construct designed to encode amino acid residues 39-453 of C2GnT3; gp67 secretion signal of vector pAcGP67A (N); made in house; host or cells: Sf9 insect cells (baculovirus; culture supernatant); High Five cells for kinetic properties (partially purified)
- Experimental details: GlcNAc-transferase activity of recombinant soluble C2GnT3 with acceptor/donor substrates
- Assay type: biochemical
- Assay context: acceptor substrate 10 mM; partially purified media of infected High Five cells; background subtracted

Compound	Substrate specificity, C2GnT3 activity
CC(=O)N[C@H]1[C@@H](Oc2ccc([N+](=O)[O-])cc2)O[C@H](CO)[C@H](O)[C@@H]1O	<0.1 nmol/h/mg
CC(=O)NC1C(OC2C(O)C(CO)OC(Oc3ccc([N+](=O)[O-])cc3)C2NC(C)=O)OC(CO)C(O)C1O (stereo not shown)	<0.1 nmol/h/mg
CC(=O)N[C@H]1C(O)O[C@H](CO)[C@H](O)[C@@H]1O (stereo partly shown)	<0.1 nmol/h/mg
CC(=O)N[C@H]1[C@H](O[C@H]2[C@@H](O)[C@@H](CO)O[C@@H](O[C@H]3[C@H](O)[C@@H](O)C(O)O[C@@H]3CO)[C@@H]2O)O[C@H](CO)[C@@H](O[C@@H]2O[C@H](CO)[C@H](O)[C@H](O)[C@H]2O)[C@@H]1O (mixture of isomers)	<0.1 nmol/h/mg
CC(=O)N[C@@H]1[C@@H](O[C@@H]2O[C@H](CO)[C@H](O)[C@H](O)[C@H]2O)[C@@H](O)[C@@H](CO)O[C@@H]1O	14.3 nmol/h/mg
CC(=O)N[C@H]1[C@@H](Oc2ccc([N+](=O)[O-])cc2)O[C@H](CO)[C@H](O)[C@@H]1O[C@@H]1O[C@H](CO)[C@H](O)[C@H](O)[C@H]1O	26.1 nmol/h/mg
CO[C@@H]1O[C@H](CO)[C@H](O)[C@H](O[C@@H]2O[C@H](CO)[C@@H](O)[C@H](O)[C@H]2NC(C)=O)[C@H]1O	<0.1 nmol/h/mg
